Target: Ephrin type-B receptor 3 (Homo sapiens)
Details: at 10 µM
Description: Millipore: Percentage of residual kinase activity of EPHB3 at 10uM relative to control. Control inhibitor: PP2 at 30.0uM. Buffer: 8 mM MOPS pH 7.0, 0.2 mM EDTA, 10 mM MnCl2
MEASURED PARAMETER: residual activity (%)
Numeric answer only, unit % assumed.

Examples with answers:
COMPOUND	residual activity [%]
CC#CC(=O)Nc1cc2c(Nc3ccc(F)c(Cl)c3)ncnc2cn1	102
COc1cccc(-c2cc(=O)c3ccccc3o2)c1N	112
CO[C@@H]1[C@H](N(C)C(=O)c2ccccc2)C[C@H]2O[C@]1(C)n1c3ccccc3c3c4c(c5c6ccccc6n2c5c31)C(=O)NC4	130
O=C1NC(=O)/C(=C\c2ccc3nccnc3c2)S1	104
O=C(O)c1ccc2c3c1cccc3c(=O)n1c3ccccc3nc21	110
CC(=O)O/N=C1\C(=C2\C(=O)Nc3cc(Br)ccc32)Nc2ccccc21	107
COc1cc2ncc(-c3ccccc3)nc2cc1OC	90
CO[C@H]1[C@@H](OC)C[C@H](C)[C@@H](OC)C2=CC(=O)C=C(NC(=O)/C(C)=C/C=C/[C@H](OC)[C@@H](OC(N)=O)/C(C)=C/[C@@H]1C)C2=O	102
Nc1n[nH]c2nnc(-c3c(-c4ccccc4)nn4ccccc34)cc12	104
COc1ccc(CNc2nc(N(CCO)CCO)nc3c2ncn3C(C)C)cc1	107

Task: Tell me the measured residual activity of `CO[C@H]1C[C@@H]2CC[C@@H](C)[C@@](O)(O2)C(=O)C(=O)N2CCCC[C@H]2C(=O)O[C@H]([C@H](C)C[C@@H]2CC[C@@H](O)[C@H](OC)C2)CC(=O)[C@H](C)/C=C(\C)[C@@H](O)[C@@H](OC)C(=O)[C@H](C)C[C@H](C)/C=C/C=C/C=C/1C` , please.
Result: 57

Task: Field entry: `Cc1nc(-c2ccccc2)c(-c2ccncc2)o1`
Result: 107

Task: Field entry: `O=C(Nc1cccc(Nc2cc(Nc3cccc(C(F)(F)F)c3)ncn2)c1)C1CC1`
Result: 100

Task: Field entry: `O=C(Nc1cccc(Nc2nccc(Nc3cccc(C(F)(F)F)c3)n2)c1)C1CC1`
Result: 113

Task: Field entry: `CC(C)n1cnc2c(NCc3ccccc3)nc(NCCCO)nc21`
Result: 104

Task: Field entry: `CC[n+]1c(/C=C/N(C)c2ccccc2)n(-c2ccccc2)c2ccc(-c3nc4ccccc4s3)cc21`
Result: 160

Task: Field entry: `Cc1cc2ncc(-c3ccccc3)nc2cc1C`
Result: 125

Task: Field entry: O=C1Nc2ccccc2/C1=C1/Nc2ccccc2/C1=N\OCCC(O)CO (centres undefined)
Result: 112

Task: Field entry: `O=c1cc(-c2cccc3c2Sc2ccccc2S3)oc(N2CCOCC2)c1`
Result: 121

###

Each record here notes measured residual activity.
Target: cAMP-dependent protein kinase catalytic subunit alpha (Homo sapiens) (UniProt P17612)
Settings: at 10 µM
Numeric answer only, unit % assumed.

Examples with answers:
> print(dat)
                                   molecule                                    system  measurement.units  experimental.value
1  O=C1Nc2ccccc2/C1=C1/Nc2ccccc2/C1=N\OCCC(O)CO (stereo not given)  cAMP-dependent protein kinase catalytic subunit alpha (Homo sapiens) (UniProt P17612)                  %                  38
2                 CC(=O)c1ccc(N2CCOCC2)cc1O  cAMP-dependent protein kinase catalytic subunit alpha (Homo sapiens) (UniProt P17612)                  %                  96
3  O=c1cc(-c2cccc3c2Sc2ccccc2S3)oc(N2CCOCC2)c1  cAMP-dependent protein kinase catalytic subunit alpha (Homo sapiens) (UniProt P17612)                  %                 104
4  Nc1n[nH]c2nnc(-c3c(-c4ccccc4)nn4ccccc34)cc12  cAMP-dependent protein kinase catalytic subunit alpha (Homo sapiens) (UniProt P17612)                  %                  77
5           Cc1nc2cc3nc(-c4cccs4)cnc3cc2n1C  cAMP-dependent protein kinase catalytic subunit alpha (Homo sapiens) (UniProt P17612)                  %                 106
6  COc1cc2ncnc(Nc3ccc(Oc4ccccc4)cc3)c2cc1OC  cAMP-dependent protein kinase catalytic subunit alpha (Homo sapiens) (UniProt P17612)                  %                 134
7  Oc1n[nH]c2nnc(-c3c(-c4ccccc4)nn4ccccc34)cc12  cAMP-dependent protein kinase catalytic subunit alpha (Homo sapiens) (UniProt P17612)                  %                 101
8           CNc1cc2c(Nc3cccc(Br)c3)ncnc2cn1  cAMP-dependent protein kinase catalytic subunit alpha (Homo sapiens) (UniProt P17612)                  %                  98

Task: Tell me the measured residual activity of `Nc1ccc2ncnc(NCCc3ccc(Oc4ccccc4)cc3)c2c1` , please.
Result: 124

Task: Field entry: `O=c1c2ccccc2[nH]c(=S)n1CCN1CCC(=C(c2ccc(F)cc2)c2ccc(F)cc2)CC1`
Result: 114
